assay-name: L929 cytotoxicity evaluation (resazurin)
Format: cell-based
setup-conditions: mouse, L929 mouse fibroblast cells; 72 hrs incubation; read-out: Cytotox L-929 IC50
So I've got a bunch of compounds here, and I need their IC50 at 72 h values.

Examples with answers:
CC1(C)OB(O)c2cc(NC(=O)c3cccc4cccnc34)ccc21; > 10 µg/mL
CC1(C)OB(O)c2cc(NC(=O)c3c(F)cccc3Cl)ccc21; > 10 µg/mL
O=C(Nc1ccc2c(c1)B(O)OC2C1CCCC1)c1ccc(F)cc1C(F)(F)F (stereo not shown); > 10 µg/mL
C=C(C)c1ccc(C(=O)Nc2ccc3c(c2)B(O)OC3(C)C)c(Cl)c1; 9.55 µg/mL
Cc1ccc(C(=O)Nc2ccc3c(c2)B(O)OC3(C)C)cc1; > 10 µg/mL

Hi! Can you tell me IC50 at 72 h for each of these compounds?
1. CC1(C)OB(O)c2cc(NC(=O)c3ccccc3I)ccc21
2. COc1ccccc1C(=O)Nc1ccc2c(c1)B(O)OC2(C)C
3. CC1(C)OB(O)c2cc(NC(=O)c3c(F)c(F)c(F)c(F)c3F)ccc21
4. CCc1ccc(C(=O)Nc2ccc3c(c2)B(O)OC3(C)C)cc1
5. CC(C)=Cc1ccc(C(=O)Nc2ccc3c(c2)B(O)OC3(C)C)c(Cl)c1

Reply |
1: > 10 µg/mL; 2: > 10 µg/mL; 3: > 10 µg/mL; 4: > 10 µg/mL; 5: 8.6 µg/mL

* * *

Tested on: bloodstream-form trypanosome T. brucei brucei 427 strain
assay-name: Trypanosoma brucei brucei high-throughput in vitro drug sensitivity assay (resazurin)
Type: cell-based
setup-conditions: Trypanosoma brucei; 72 hrs incubation; read-out: T. b. brucei IC50
pIC50: −log10 of the molar value.
assay-metric: pIC50

CC(C)CC1OB(O)c2cc(NC(=O)c3ccc(F)cc3)ccc21 (stereo not drawn); < 4.82
CC(C)CC1OB(O)c2cc(NC(=O)c3ccccc3Cl)ccc21 (stereo not drawn); < 4.84

Shift focus to the following entry.
Ask | Give pIC50; test system bloodstream-form trypanosome T. brucei brucei 427 strain; compound O=C(Nc1ccc2c(c1)B(O)OC2C1CCCC1)c1ccc(F)cc1 (stereo not drawn)
Reply | < 4.84

* * *

assay-name: Kinetic solubility by nephelometric (light scattering) method
Assay type: physicochemical
setup-conditions: phosphate buffered saline, aqueous buffer, kinetic from dmso stock, PBS pH 7.4
assay-metric: solubility at 90 min (µM)
Numbers only, in µM.

Examples with answers:
CC1OB(O)c2cc(NC(=O)c3ccc(F)cc3)ccc21 (stereo not shown); 100
CC1(C)OB(O)c2cc(NC(=O)c3ccc(Br)cc3Cl)ccc21; 25
CC1(C)OB(O)c2cc(NC(=O)c3ccc(F)cc3Cl)ccc21; 100
O=C(Nc1ccc2c(c1)B(O)OC21CCC1)c1ccc(F)cc1Cl; 25
CC1(C)OB(O)c2cc(NC(=O)c3ccccn3)ccc21; 100
COc1ccc(C(=O)Nc2ccc3c(c2)B(O)OC3C)cc1 (stereo not shown); 100
CC1(C)OB(O)c2cc(NC(=O)c3ccc(F)cc3)ccc21; 100
CC1(C)OB(O)c2cc(NC(=O)c3ccc4ccccc4c3)ccc21; 50

Shift focus to the following entry.
Ask | # return recorded solubility at 90 min for entry CC1OB(O)c2cc(NC(=O)c3ccc(F)cc3C(F)(F)F)ccc21 (stereo not shown)
Reply | 50
